test: HILIC, Merck SeQuant ZIC-pHILIC, 150 × 2.1 mm, 5 µm, 40 °C, 0.3 mL/min, estimated dead time 1.1 min; A: acetonitrile; B: water + 2.8 mM ammonium formate, pH 9; gradient (min/%B) 0/5 1/5 10/51 13/51 13.1/5 20/5; details: stereoisomer not certain
Threshold 10 min: LC retention time strictly smaller gives TRUE, otherwise FALSE.

Below are worked cases with known answers.
[[record]]
molecule = "O=C(O)c1ccc2ccccc2c1[O-] [1-HYDROXY-2-NAPHTHOATE]"
assigned_class = "TRUE"

[[record]]
molecule = "NC1C(O)OC(COS(=O)(=O)O)C(O)C1O (centres undefined) [GLUCOSAMINE 6-SULFATE]"
assigned_class = "FALSE"

[[record]]
molecule = "O=c1ccn(C2CC(O)C(COP(=O)(O)O)O2)c(=O)[nH]1 (centres undefined) [DEOXYURIDINE-MONOPHOSPHATE]"
assigned_class = "TRUE"

[[record]]
molecule = "O=C(O)C(O)C(O)C(O)C(O)CO (centres undefined) [GLUCONATE]"
assigned_class = "TRUE"

[[record]]
molecule = "O=C(O)CC(C(=O)O)C(O)C(=O)O (centres undefined) [ISOCITRATE]"
assigned_class = "FALSE"


**Q:** For O=C(O)C=Cc1cnc[nH]1 [UROCANATE] , is the recorded LC retention time below the cut-off of 10 min?
**A:** TRUE

**Q:** Given CC(C)C(N)C(=O)O (centres undefined) , is recorded LC retention time strictly lower than 10 min?
**A:** TRUE

----------
Measured LC retention time values are reported for all entries that follow.
experiment: HILIC, Waters ACQUITY UPLC BEH Amide, 150 × 2.1 mm, 1.7 µm, 40 °C, 0.5 mL/min, estimated dead time 0.66 min; A: 5% water + 95% acetonitrile; B: 70% water + 30% acetonitrile + 10 mM ammonium formate, pH 6.5; gradient (min/%B) 0/0 2/0 20/70 23/70 24/0 31/0; conditions: stereoisomer not certain

Sample answers from the record:
[[record]]
molecule = "COC(=O)CCCC(=O)O [MONOMETHYLGLUTARATE]"
obs_value = "2.48 min"

[[record]]
molecule = "NCc1ccccc1 [BENZYLAMINE]"
obs_value = "7.09 min"

[[record]]
molecule = "CCCC(N)C(=O)O (configuration not stated) [NORVALINE]"
obs_value = "8.68 min"


**Q:** Value lookup for LC retention time; key = C[N+](C)(C)CCCC(=O)[O-] [DEOXYCARNITINE]
**A:** 10.8 min

**Q:** I have this molecule here, Cn1cnc(C[C@H](N)C(=O)O)c1 [1-METHYL-L-HISTIDINE] , and I need its recorded LC retention time.
**A:** 13.2 min

**Q:** May I ask what LC retention time has been recorded for CN1CC(=O)NC1=N [CREATININE] ?
**A:** 4.34 min

**Q:** Consider the molecule CSCC1OC(n2cnc3c(N)ncnc32)C(O)C1O (configuration not stated) [METHYLTHIOADENOSINE] and give its measured LC retention time.
**A:** 1.99 min

**Q:** Fill blank: measured LC retention time of the molecule CC(=O)NC(Cc1ccccc1)C(=O)O (configuration not stated) [N-ACETYLPHENYLALANINE] is ____.
**A:** 2.48 min

**Q:** Given CC(C)(CO)C(O)C(=O)NCCC(=O)O (configuration not stated) [PANTOTHENATE] , state its recorded LC retention time.
**A:** 3.31 min

----------
test: HILIC, Waters ACQUITY UPLC BEH Amide, 150 × 2.1 mm, 1.7 µm, 40 °C, 0.5 mL/min, estimated dead time 0.66 min; A: 5% water + 95% acetonitrile; B: 70% water + 30% acetonitrile + 10 mM ammonium formate, pH 6.5; gradient (min/%B) 0/0 2/0 20/70 23/70 24/0 31/0; details: stereoisomer not certain
Assign condition met to entries whose LC retention time meets or exceeds 1 min; assign condition not met to the rest.

**Q:** Decide: is the reported value of LC retention time for O=C1OC(C(O)CO)C(O)C1O (stereo not drawn) equal to or greater than 1 min?
**A:** condition met

**Q:** Item "Cn1cncc1CCN" with LC retention time of 1 min or above?
**A:** condition met

**Q:** For this compound, is measured LC retention time 1 min or higher? O=C(O)CCCCCCCC(=O)O [AZELATE]
**A:** condition met

**Q:** Could you tell me if the measured LC retention time of CC12CCC(=O)C=C1CCC1C2C(O)CC2(C)C(C(=O)CO)CCC12 (stereo not drawn) reaches 1 min or more?
**A:** condition not met

**Q:** Test whether the compound CC12CCC(=O)C=C1CCC1C2C(=O)CC2(C)C1CCC2(O)C(=O)CO (stereo not drawn) records LC retention time of 1 min or higher.
**A:** condition not met

**Q:** Textbook exercise: given the entry O=c1[nH]c(=O)c2[nH]c(=O)[nH]c2[nH]1 [URATE] , state whether its LC retention time is greater than or equal to 1 min.
**A:** condition met

**Q:** Please tell me: is the compound NC1CCSC1=O (stereo not drawn) at or over 1 min in terms of LC retention time?
**A:** condition met

----------
test: HILIC, Merck SeQuant ZIC-pHILIC, 150 × 2.1 mm, 5 µm, 40 °C, 0.3 mL/min, estimated dead time 1.1 min; A: acetonitrile; B: water + 2.8 mM ammonium formate, pH 9; gradient (min/%B) 0/5 1/5 10/51 13/51 13.1/5 20/5; conditions: stereoisomer not certain
Each entry below carries its recorded LC retention time.
Provide a numeric answer, followed by its unit.

[[record]]
compound = "NC(CCOC(=O)CCC(=O)O)C(=O)O (stereo unspecified)"
observable = "LC retention time"
obs_value = "8.3 min"

[[record]]
compound = "O=C(O)C=CC(=O)O [FUMARATE]"
observable = "LC retention time"
obs_value = "9.5 min"

[[record]]
compound = "O=C(O)Cc1cnc[nH]1 [4-IMIDAZOLEACETATE]"
observable = "LC retention time"
obs_value = "8.13 min"

[[record]]
compound = "Nc1ncnc2c1ncn2C1OC(CSCCC([NH3+])C(=O)[O-])C(O)C1O (stereo unspecified)"
observable = "LC retention time"
obs_value = "8.51 min"

[[record]]
compound = "O=C(O)c1cccnc1C(=O)O [QUINOLINATE]"
observable = "LC retention time"
obs_value = "1.76 min"


Now consider a different compound.
**Q:** Which LC retention time value is on record for O=C(O)CC(O)C(=O)O (stereo unspecified) [MALATE] ?
**A:** 9.39 min

----------
assay: RP, Phenomenex Kinetex C18, 150 × 2.1 mm, 1.7 µm, 30 °C, 0.3 mL/min, estimated dead time 1.1 min; A: water + 0.1% formic acid, pH 3; B: acetonitrile + 0.1% formic acid, pH 3; gradient (min/%B) 0/2 14/100 17/100 17.1/2 25/2; conditions: stereoisomer not certain
Measured LC retention time values are reported for all entries that follow.
Quick reminder: number only, in min, skip the unit.

Known LC retention time results, listed for orientation:
[[record]]
compound = "CC(C=CC1=C(C)CCCC1(C)C)=CC=CC(C)=CC(=O)[O-] [RETINOATE]"
obs_value = 11.2

[[record]]
compound = "NC(=O)Cc1c[nH]c2ccccc12 [INDOLE-3-ACETAMIDE]"
obs_value = 5.42


Now for the compound whose LC retention time we want.
**Q:** Which LC retention time reading was recorded for the compound CC(O)(CC(=O)O)CC(=O)O [3-HYDROXYMETHYLGLUTARATE] ?
**A:** 2.36

----------
test: RP, Phenomenex Kinetex C18, 150 × 2.1 mm, 1.7 µm, 30 °C, 0.3 mL/min, estimated dead time 1.1 min; A: water + 0.1% formic acid, pH 3; B: acetonitrile + 0.1% formic acid, pH 3; gradient (min/%B) 0/2 14/100 17/100 17.1/2 25/2; conditions: stereoisomer not certain
Use criterion met when the recorded LC retention time is no lower than 2 min; use criterion not met when it is lower.

[[record]]
compound = "CC(O)C(O)C1=Nc2c(nc(N)[nH]c2=O)NC1 (stereo not given) [DIHYDROBIOPTERIN]"
assigned_class = "criterion met"

[[record]]
compound = "N[C@@H](Cc1ccc(O)c(O)c1)C(=O)O [L-DOPA]"
assigned_class = "criterion not met"

[[record]]
compound = "Nc1nc2nc[nH]c2c(=O)[nH]1 [GUANINE]"
assigned_class = "criterion not met"

[[record]]
compound = "O=C([O-])C=CC(=O)[O-] [MALEATE]"
assigned_class = "criterion not met"


Alright, here's another compound for you.
**Q:** Is LC retention time for O=C(O)C1CCCCN1 (stereo not given) [PIPECOLATE] at or above 2 min?
**A:** criterion not met

----------
test: HILIC, Waters ACQUITY UPLC BEH Amide, 150 × 2.1 mm, 1.7 µm, 40 °C, 0.5 mL/min, estimated dead time 0.66 min; A: 5% water + 95% acetonitrile; B: 70% water + 30% acetonitrile + 10 mM ammonium formate, pH 6.5; gradient (min/%B) 0/0 2/0 20/70 23/70 24/0 31/0; conditions: stereoisomer not certain
observable: LC retention time (min)
Respond with the bare value in min.

Guide cases for LC retention time, answers given:
[[record]]
compound = "CC(=O)NCCc1c[nH]c2ccc(O)cc12"
observable = "LC retention time"
readout_unit = "min"
obs_value = 1.02

[[record]]
compound = "C[N+](C)(C)CC(=O)[O-]"
observable = "LC retention time"
readout_unit = "min"
obs_value = 7.63


**Q:** Item under review: CC12CCC(O)CC1CCC1C2C(O)CC2(C)C1CCC2(O)C(=O)CO (stereo unspecified) . Reported LC retention time?
**A:** 0.99

**Q:** Request the reported LC retention time associated with CCCCCCCCCCCCCCCC(=O)OCC(COP(=O)(O)OCCN)OC(=O)CCCCCCCCCCCCCCC (stereo unspecified)
**A:** 4.45

**Q:** # LC retention time lookup, item O=C([O-])c1cccnc1 [NICOTINATE]
**A:** 3.5

**Q:** Bench note: what LC retention time did "C[n+]1cccc(C(=O)[O-])c1" show?
**A:** 7.85

Attribution: the RepoRT retention time repository (doi:10.1016/j.chroma.2019.01.023)
